All values here come from patent US20220249617A1.

- experimental.protocol: physchem
- condition.summary: water, thermodynamic from solid
test.readout: solubility at 21.67 h (µg/mL)
// note: answer is a bare numeric in µg/mL

Look up solubility at 21.67 h for this compound: CCOc1ccc(Cc2cc([C@@H]3O[C@H](CO)[C@@H](O)[C@H](O)[C@H]3O)ccc2Cl)cc1 [DPZ, dapagliflozin]
1600
